# Test system: adult castor bean ticks (Ixodes ricinus)
# Test Description: Ixodes ricinus in vitro contact test with adult castor bean ticks (T3)
# Conditions: application rate 5 μg/cm^2; after 48 h
Measured Quantity: efficacy (dead or moribund ticks) (%)
Enter your answer as a number in %; do not include the unit.

Given the compound Cn1nc(C(F)(F)C(F)(F)F)c(C(F)(F)F)c1-n1cc(-c2cccc(C(=O)NC3CC3)c2)cn1 [Ic-18] , what is its reported efficacy (dead or moribund ticks)?
80

Quick one: efficacy (dead or moribund ticks) of Cn1nc(C(F)(F)C(F)(F)F)c(C(F)(F)F)c1-n1cc(-c2ccc(Cl)c(C(=O)NC3CC3F)c2)cn1 (stereo not shown) [Ic-81] ?
100

// efficacy (dead or moribund ticks) lookup, key: Cn1nc(C(F)(F)C(F)(F)F)c(C(F)(F)F)c1-n1cc(-c2ccc(Cl)c(C(=O)NCC(F)(F)F)c2)cn1 [Ic-23]
100

Which efficacy (dead or moribund ticks) is reported for this compound? CCn1nc(C(F)(F)C(F)(F)F)c(C(F)(F)F)c1-n1cc(-c2ccc(Cl)c(C(=O)NC3CC3)c2)cn1 [Ic-16]
100

Could you tell me which efficacy (dead or moribund ticks) is on file for Cc1cc(-c2cnn(-c3c(C(F)(F)F)c(C(F)(F)C(F)(F)F)nn3C)c2)cc(C(=O)NC2CC2)c1Cl [Ic-90] ?
100

Suppose we examine the compound Cn1nc(C(F)(F)C(F)(F)F)c(C(F)(F)F)c1-n1cnc(-c2ccc(Cl)c(C(=O)NC3CC3)c2)c1 [Ib-3] ; what efficacy (dead or moribund ticks) value has been reported?
80

Entry under review: Cn1nc(C(F)(F)C(F)(F)F)c(C(F)(F)F)c1-n1cc(-c2cc(C(=O)NC3(C#N)CC3)c(F)cc2Cl)cn1 [Ic-48] . Reported efficacy (dead or moribund ticks)?
100
